# assay.procedure: Evaluated for AUC after iv administration of 5 mg/kg to male Sprague-Dawley rats in brain
# Type: ADME, organism-based
# Parameters: dose 5 mg/kg, route intravenous
# details: rat
result.type: AUC (ng·h/mL)
Just the number please, in ng·h/mL, no unit attached.

Prompt: Quick one: AUC for COc1ccc(Cl)cc1[C@]1(F)C(=O)Nc2cc(C(F)(F)F)ccc21 ?
Completion: 28800

* * *

# assay.procedure: Ratio of brain AUC versus plasma AUC
# Type: ADME, cell-free
# details: rat
result.type: Kp
Just the number.

Prompt: Quick one: Kp for COc1ccc(Cl)cc1[C@]1(F)C(=O)Nc2cc(C(F)(F)F)ccc21 [FLINDOKALNER] ?
Completion: 9.6

* * *

# assay.procedure: Evaluated for Volume of distribution after iv administration of 5 mg/kg to male Sprague-Dawley rats
# Assay type: ADME, organism-based
# Design: dose 5 mg/kg, route intravenous
# details: rat, in vivo, read-out: Volume of distribution
result.type: Vd (L/kg)
Just the number please, in L/kg, no unit attached.

Prompt: Quick one: Vd for COc1ccc(Cl)cc1[C@]1(F)C(=O)Nc2cc(C(F)(F)F)ccc21 ?
Completion: 5.8

* * *

# assay.procedure: Evaluated for half-life after iv administration of 5 mg/kg to male Sprague-Dawley rats in brain
# Assay type: ADME, organism-based
# Parameters: dose 5 mg/kg, route intravenous
# details: rat
result.type: half-life (h)
Just the number please, in h, no unit attached.

Prompt: Quick one: half-life for COc1ccc(Cl)cc1[C@]1(F)C(=O)Nc2cc(C(F)(F)F)ccc21 ?
Completion: 1.6

* * *

# assay.procedure: Evaluated for plasma clearance after iv administration of 5 mg/kg to male Sprague-Dawley rats
# Format: ADME, organism-based
# Parameters: dose 5 mg/kg, route intravenous
# details: rat
result.type: clearance (mL/min/kg)
Just the number please, in mL/min/kg, no unit attached.

Prompt: Quick one: clearance for COc1ccc(Cl)cc1[C@]1(F)C(=O)Nc2cc(C(F)(F)F)ccc21 [FLINDOKALNER] ?
Completion: 51.5

* * *

# assay.procedure: Evaluated for half-life after iv administration of 5 mg/kg to male Sprague-Dawley rats in plasma
# Type: ADME, organism-based
# Set-up: dose 5 mg/kg, route intravenous
# details: rat
result.type: half-life

Prompt: Quick one: half-life for COc1ccc(Cl)cc1[C@]1(F)C(=O)Nc2cc(C(F)(F)F)ccc21 ?
Completion: 1.9 h

* * *

# assay.procedure: Evaluated for half-life after iv administration of 1 mg/kg to male Sprague-Dawley rats in plasma
# Format: ADME, organism-based
# Set-up: dose 1 mg/kg, route intravenous
# details: rat
result.type: half-life
Field note: include the unit after the figure.

Prompt: Quick one: half-life for COc1ccc(Cl)cc1[C@]1(F)C(=O)Nc2cc(C(F)(F)F)ccc21 ?
Completion: 1.8 h

* * *

# assay.procedure: Evaluated for AUC after iv administration of 5 mg/kg to male Sprague-Dawley rats in plasma
# Format: ADME, organism-based
# Parameters: dose 5 mg/kg, route intravenous
# details: rat
result.type: AUC (ng·h/mL)
Just the number please, in ng·h/mL, no unit attached.

Prompt: Quick one: AUC for COc1ccc(Cl)cc1[C@]1(F)C(=O)Nc2cc(C(F)(F)F)ccc21 [FLINDOKALNER] ?
Completion: 3000

Data provenance: ChEMBL document CHEMBL1136064
